All figures here come from patent US20220125947A1.

- target: Vg9/Vd2 T cell receptor on SKW3_4 cells (UniProt Q99603)
- Sequence (Q99603 21-122, chain 1 of 2): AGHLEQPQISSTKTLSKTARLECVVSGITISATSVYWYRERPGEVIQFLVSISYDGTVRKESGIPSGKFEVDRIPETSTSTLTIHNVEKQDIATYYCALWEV
- Sequence (A0JD36 20-115, chain 2 of 2, further chain): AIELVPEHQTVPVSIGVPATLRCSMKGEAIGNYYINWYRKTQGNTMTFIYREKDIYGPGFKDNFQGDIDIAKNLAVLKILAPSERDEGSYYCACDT
- measurementDescription: flow cytometry, dose-response binding at 37 C on SKW3_4 cells expressing Vg9/Vd2
measurementKind: Max. Activity (fold over background)

VG9B430 (antibody, human IgG1, kappa, V domains shown) VH: EVQLLESGGGLVKPGGSLRLSCSASGFTFSSYDMNWVRQAPGKGLEWVSSISSSSSYIYYADSVKGRFTISRDNAKNSLYLQMNSLRAEDTAVYHCARDVGVTTDYYYYGMDVWGQGTMVTVSS VL: EIVLTQSPGTLSLSPGDRATLSCRASQSVASSYLAWYQQKPGQSPRLLIYGASSRATGIPDRFSGSGSGTDFTLTISRLEPEDFAVYYCQQYGSSPPYTFGQGTKLEIKR = 143
VG9B384 (antibody, human IgG1, lambda, V domains shown) VH: QVQLQESGPALVKPTQTLTLTCTFSGFSLSSSGMCVSWIRQPPGKALEWLTLIDWFDDKYYSTSLKTRLTISKDTSKNQVVLTMTNMDPVDTATYYCARIRGTGAYYYGLDVWGQGTMVTVSS VL: SYELMQPPSVSVSPGQTASITCSGNELGDKYASWYQQQPGQSPVLVIYQDNKRPSGIPERFSGSNSGNTATLTISGTQAMDEADYYCQAWDSSKVVFGGGTKLTVLG = 121
VG9B98 (antibody, human IgG1, kappa, V domains shown) VH: EVQLVQSGGDLVKSGGSLRLSCAASGFTFSSYSMYWVRQAPGKGLEWVSSIGSSSTYIFYADSVKGRFTISRDNAMTSLYLQMNRLGAEDSAVYYCARDGELGPFEYWGQGTLVTVSS VL: EIVLTQSPGTLSLSPGERATLSCRASQSVSTSYLAWFQQKPGQAPRLLIFGTSSRATGIPDRFSGSGSGTDFTLTISRLEPEDFAVYHCLQYGRSPLTFGGGTKVDIKR = 154
